Each record here notes measured pIC50.
- experimental.target: FLT3 (Homo sapiens, UniProt P36888)
- Sequence (P36888 27-993): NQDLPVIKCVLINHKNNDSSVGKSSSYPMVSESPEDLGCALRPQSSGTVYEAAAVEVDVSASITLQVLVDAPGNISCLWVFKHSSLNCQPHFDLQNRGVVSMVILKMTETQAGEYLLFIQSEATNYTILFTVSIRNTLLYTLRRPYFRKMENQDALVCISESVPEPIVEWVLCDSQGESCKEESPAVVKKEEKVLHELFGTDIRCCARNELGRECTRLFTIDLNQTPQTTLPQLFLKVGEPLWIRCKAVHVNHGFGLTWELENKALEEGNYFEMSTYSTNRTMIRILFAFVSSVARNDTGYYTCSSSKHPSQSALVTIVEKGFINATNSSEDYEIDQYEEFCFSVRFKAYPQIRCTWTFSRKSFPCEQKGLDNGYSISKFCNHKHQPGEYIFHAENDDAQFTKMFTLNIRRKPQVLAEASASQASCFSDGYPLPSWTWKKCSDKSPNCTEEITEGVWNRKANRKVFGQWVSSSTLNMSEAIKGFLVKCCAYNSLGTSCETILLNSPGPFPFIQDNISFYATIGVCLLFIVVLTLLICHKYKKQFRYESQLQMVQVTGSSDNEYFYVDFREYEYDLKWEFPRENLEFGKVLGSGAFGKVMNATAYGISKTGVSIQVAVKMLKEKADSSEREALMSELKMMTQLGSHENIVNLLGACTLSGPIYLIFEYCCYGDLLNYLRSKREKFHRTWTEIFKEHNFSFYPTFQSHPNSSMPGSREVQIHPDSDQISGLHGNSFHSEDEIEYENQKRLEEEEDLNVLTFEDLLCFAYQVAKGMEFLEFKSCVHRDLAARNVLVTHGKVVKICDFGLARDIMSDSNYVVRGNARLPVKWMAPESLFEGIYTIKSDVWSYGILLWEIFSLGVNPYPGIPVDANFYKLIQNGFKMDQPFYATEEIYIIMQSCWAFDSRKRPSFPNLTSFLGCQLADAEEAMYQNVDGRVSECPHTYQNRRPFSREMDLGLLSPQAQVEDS
pIC50: −log10 of the molar value.

Before answering, review these 6 worked examples.
compound="COC[C@H](C)Nc1ncc2c(-c3cnn(C(C)(C)C(=O)N4C[C@H]5CC[C@@H](C4)O5)c3)cc([C@H]3CC[C@H](O)CC3)n2n1 [Compound 327]" parameter_measured=pIC50 endpoint_result="5.00 to 6.00"
compound="CC(COC(F)F)Nc1ncc2c(-c3cnn(C(C)(C)C(=O)N4CCOCC4)c3)cc(C3CCC(O)CC3)n2n1 (centres unmarked) [Compound 393]" parameter_measured=pIC50 endpoint_result="≥ 7.00"
compound="COC[C@H](C)Nc1ncc2c(-c3cnn(C4CN(CCC(F)(F)F)C4)c3)cc([C@H]3CC[C@H](O)CC3)n2n1 [Compound 291]" parameter_measured=pIC50 endpoint_result="6.00 to 7.00"
compound="C[C@@H](CC(F)(F)F)Nc1ncc2c(-c3cncc(C(=O)O)c3)cc([C@H]3CC[C@H](O)CC3)n2n1 [Compound 298]" parameter_measured=pIC50 endpoint_result="5.00 to 6.00"
compound="CCOC(=O)Cn1cc(-c2cc([C@H]3CC[C@H](O)CC3)n3nc(N[C@@H](C)COC)ncc23)cn1 [Compound 159]" parameter_measured=pIC50 endpoint_result="6.00 to 7.00"
compound="COC[C@H](C)Nc1ncc2c(-c3ccc(S(C)(=O)=O)nc3)cc([C@H]3CC[C@H](O)CC3)n2n1 [Compound 279]" parameter_measured=pIC50 endpoint_result="6.00 to 7.00"

Report pIC50 for CNC(=O)C(C)(C)n1cc(-c2cc([C@H]3CC[C@H](O)CC3)n3nc(N[C@@H](C)COC)ncc23)cn1 [Compound 295] please.
5.00 to 6.00

And what about the compound CC(CC(F)(F)F)Nc1ncc2c(-c3cnc(C(=O)O)nc3)cc(C3CCC(O)CC3)n2n1 (centres unmarked) [Compound 299] ?
5.00 to 6.00

And what about the compound COC[C@H](C)Nc1ncc2c(-c3cnn(Cc4nc(C)no4)c3)cc([C@H]3CC[C@H](O)CC3)n2n1 [Compound 292] ?
6.00 to 7.00

And what about the compound COCC(C)Nc1ncc2c(-c3ccc(C4(C(=O)N5CCS(=O)(=O)CC5)CC4)cc3)cc(C3CCC(O)CC3)n2n1 (centres unmarked) [Compound 172] ?
≥ 7.00

And what about the compound COC[C@H](C)Nc1ncc2c(-c3cnn(C(C)(C)C(=O)N4C[C@@H](C)N[C@@H](C)C4)c3)cc([C@H]3CC[C@@H](O)CC3)n2n1 [Compound 591] ?
5.00 to 6.00

###

Each record here notes measured pIC50.
- experimental.target: FLT3 (Homo sapiens)
- Sequence (P36888 27-993): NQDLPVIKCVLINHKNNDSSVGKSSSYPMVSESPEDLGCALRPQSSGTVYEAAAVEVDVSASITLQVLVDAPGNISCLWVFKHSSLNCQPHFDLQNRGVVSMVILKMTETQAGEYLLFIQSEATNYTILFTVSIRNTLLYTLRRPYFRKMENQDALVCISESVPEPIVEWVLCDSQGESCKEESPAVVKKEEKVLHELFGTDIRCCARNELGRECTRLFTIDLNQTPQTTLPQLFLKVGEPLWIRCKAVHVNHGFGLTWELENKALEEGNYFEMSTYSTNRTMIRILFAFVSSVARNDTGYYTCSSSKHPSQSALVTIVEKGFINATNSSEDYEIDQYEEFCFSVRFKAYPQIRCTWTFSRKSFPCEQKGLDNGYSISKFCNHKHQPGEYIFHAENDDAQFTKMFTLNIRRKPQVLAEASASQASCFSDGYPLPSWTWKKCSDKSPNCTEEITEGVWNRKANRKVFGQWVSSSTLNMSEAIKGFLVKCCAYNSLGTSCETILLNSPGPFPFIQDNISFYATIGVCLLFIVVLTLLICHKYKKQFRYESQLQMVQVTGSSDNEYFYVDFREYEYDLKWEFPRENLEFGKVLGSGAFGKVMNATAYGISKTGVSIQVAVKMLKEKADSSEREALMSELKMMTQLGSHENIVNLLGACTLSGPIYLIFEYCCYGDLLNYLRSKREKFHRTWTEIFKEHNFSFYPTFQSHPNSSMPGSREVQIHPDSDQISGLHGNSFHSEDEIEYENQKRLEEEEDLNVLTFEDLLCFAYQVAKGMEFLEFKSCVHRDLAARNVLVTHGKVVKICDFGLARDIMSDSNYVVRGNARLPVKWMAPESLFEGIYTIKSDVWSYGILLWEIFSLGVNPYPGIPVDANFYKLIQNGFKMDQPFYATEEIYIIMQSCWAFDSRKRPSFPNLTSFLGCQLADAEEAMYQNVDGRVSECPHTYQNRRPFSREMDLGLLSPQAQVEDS
pIC50: −log10 of the molar value.

Before answering, review these 5 worked examples.
compound="CC(CC(F)F)Nc1ncc2c(-c3ccc(CN4CCN(C)CC4)cc3)cc(C3CCC(O)CC3)n2n1 (stereo not shown) [Compound 352]" endpoint_result="≥ 7.00"
compound="COC[C@H](C)Nc1ncc2c(-c3ccnc(N4CCN(C5COC5)CC4)c3)cc([C@H]3CC[C@H](O)CC3)n2n1 [Compound 486]" endpoint_result="5.00 to 6.00"
compound="CCC(C)Nc1ncc2c(C)cc(C3CCC(O)CC3)n2n1 (stereo not shown) [Compound 123]" endpoint_result="5.00 to 6.00"
compound="COCC(C)Nc1ncc2c(-c3cnn(C(C)(C)C(=O)N4CCOC(C)(C)C4)c3)cc(C3CCC(O)CC3)n2n1 (stereo not shown) [Compound 366]" endpoint_result="5.00 to 6.00"
compound="Cc1cc(-c2cc(C3CCC(O)CC3)n3nc(NC(C)CC4CC4)ncc23)ccn1 (stereo not shown) [Compound 190]" endpoint_result="≥ 7.00"

Lookup: pIC50 / FLT3 (Homo sapiens) / COC[C@H](C)Nc1ncc2c(-c3cnn(C[C@@H]4CC(=O)N(C)C4)c3)cc([C@H]3CC[C@H](O)CC3)n2n1 [Compound 473]
6.00 to 7.00

And what about the compound COC[C@H](C)Nc1ncc2c(-c3cnn(C(C)(C)C(=O)N4CCC4)c3)cc([C@H]3CC[C@H](O)CC3)n2n1 [Compound 283] ?
5.00 to 6.00

###

- experimental.target: FLT3 (Homo sapiens, UniProt P36888)
- Sequence (P36888 27-993): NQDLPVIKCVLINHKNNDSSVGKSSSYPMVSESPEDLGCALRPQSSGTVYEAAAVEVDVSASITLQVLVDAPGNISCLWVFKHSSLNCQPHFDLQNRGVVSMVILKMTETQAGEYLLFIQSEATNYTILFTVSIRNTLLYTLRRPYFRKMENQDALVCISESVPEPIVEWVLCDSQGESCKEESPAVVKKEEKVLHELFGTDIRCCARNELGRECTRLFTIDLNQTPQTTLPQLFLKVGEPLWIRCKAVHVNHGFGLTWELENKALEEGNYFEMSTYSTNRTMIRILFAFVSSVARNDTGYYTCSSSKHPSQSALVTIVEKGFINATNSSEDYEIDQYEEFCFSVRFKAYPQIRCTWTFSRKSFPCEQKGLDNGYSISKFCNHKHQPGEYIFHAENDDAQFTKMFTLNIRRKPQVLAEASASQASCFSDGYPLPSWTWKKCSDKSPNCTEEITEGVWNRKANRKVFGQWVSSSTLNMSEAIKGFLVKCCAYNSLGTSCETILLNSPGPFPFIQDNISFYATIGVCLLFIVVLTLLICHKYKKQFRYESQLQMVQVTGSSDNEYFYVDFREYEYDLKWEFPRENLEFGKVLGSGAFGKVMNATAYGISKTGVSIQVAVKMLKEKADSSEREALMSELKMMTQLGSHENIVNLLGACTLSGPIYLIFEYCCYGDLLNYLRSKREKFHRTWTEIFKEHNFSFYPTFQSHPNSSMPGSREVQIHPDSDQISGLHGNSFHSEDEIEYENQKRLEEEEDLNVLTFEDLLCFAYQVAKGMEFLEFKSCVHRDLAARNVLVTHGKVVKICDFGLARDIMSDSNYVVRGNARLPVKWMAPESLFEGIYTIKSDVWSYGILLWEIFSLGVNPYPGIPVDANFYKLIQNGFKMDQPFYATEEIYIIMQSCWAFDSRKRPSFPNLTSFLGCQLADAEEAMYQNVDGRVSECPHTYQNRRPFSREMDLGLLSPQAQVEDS
Each record here notes measured IC50.

compound="COC[C@H](C)Nc1ncc2c(-c3ccc(C(=O)O)cc3)cc([C@H]3CC[C@H](O)CC3)n2n1 [Compound 139]" experimental_target="FLT3 (Homo sapiens, UniProt P36888)" parameter_measured=IC50 endpoint_result="1000 to 10000 nM"
compound="CC(Nc1ncc2c(-c3ccc(CN4CCOCC4)cc3)cc(C3CCC(O)CC3)n2n1)C(F)(F)F (stereo not shown) [Compound 202]" experimental_target="FLT3 (Homo sapiens, UniProt P36888)" parameter_measured=IC50 endpoint_result="100 to 1000 nM"
compound="C[C@H](Nc1ncc2c(-c3cnn(C4COC4)c3)cc([C@H]3CC[C@H](O)CC3)n2n1)C(F)(F)F [Compound 510]" experimental_target="FLT3 (Homo sapiens, UniProt P36888)" parameter_measured=IC50 endpoint_result="1000 to 10000 nM"
compound="COC[C@H](C)Nc1ncc2c(-c3cnn(Cc4noc(C)n4)c3)cc([C@H]3CC[C@H](O)CC3)n2n1 [Compound 285]" experimental_target="FLT3 (Homo sapiens, UniProt P36888)" parameter_measured=IC50 endpoint_result="100 to 1000 nM"
compound="C[C@@H](CC(F)(F)F)Nc1ncc2c(-c3cnn(C(C)(C)C(=O)N4CCN(C)CC4)c3)cc(C3CCC(O)CC3)n2n1 (stereo partly shown) [Compound 626]" experimental_target="FLT3 (Homo sapiens, UniProt P36888)" parameter_measured=IC50 endpoint_result="≤ 100 nM"
compound="COC[C@H](C)Nc1ncc2c(-c3cnn([C@@H]4CCN(C(C)=O)C4)c3)cc([C@H]3CC[C@H](O)CC3)n2n1 [Compound 396]" experimental_target="FLT3 (Homo sapiens, UniProt P36888)" parameter_measured=IC50 endpoint_result="100 to 1000 nM"

Report IC50 for COC[C@H](C)Nc1ncc2c(-c3cnn(C(C)(C)C(=O)N4CCOC(C(C)(C)O)C4)c3)cc([C@H]3CC[C@H](O)CC3)n2n1 (stereo partly shown) [Compound 556] please.
1000 to 10000 nM
